Taken from ChEMBL document CHEMBL3745711.

assay: AUC (0 to t) in Sprague-Dawley rat at 3 mg/kg, po by LC-MS/MS analysis; assay type: ADME, organism-based; conditions: in vivo
quantity-name: AUC(0-t) (ng·h/mL)
Quick reminder: number only, in ng·h/mL, skip the unit.

Answered examples (2):
compound: O=C(O)C1(Sc2ccnc3ccccc23)CCC1
quantity-name: AUC(0-t)
endpoint-value: 20700
//
compound: O=C(O)C1(Sc2ccnc3ccc(C(F)(F)F)cc23)CCC1
quantity-name: AUC(0-t)
endpoint-value: 38200

# ---- query compound ----
# input compound: O=C(O)C1(Sc2ccnc3ccc(Br)cc23)CCC1 [SHR-4640] ; wanted: its AUC(0-t)
146000

---

test: Mean residence time in beagle dog at 5 mg/kg, po by LC-MS/MS analysis; assay type: ADME, organism-based, Canis lupus familiaris; settings: in vivo
quantity-name: MRT (h)
Response body: numeric value in h, unit text excluded.

Data request, read-out MRT, for O=C(O)C1(Sc2ccnc3ccc(Br)cc23)CCC1 [SHR-4640]
5

---

biological target: UniProt:Q96S37; experiment: Inhibition of human URAT1 expressed in HEK293 cells assessed as [14C]uric acid uptake after 12 mins by scintillation counter
Sequence (Q96S37 whole entry): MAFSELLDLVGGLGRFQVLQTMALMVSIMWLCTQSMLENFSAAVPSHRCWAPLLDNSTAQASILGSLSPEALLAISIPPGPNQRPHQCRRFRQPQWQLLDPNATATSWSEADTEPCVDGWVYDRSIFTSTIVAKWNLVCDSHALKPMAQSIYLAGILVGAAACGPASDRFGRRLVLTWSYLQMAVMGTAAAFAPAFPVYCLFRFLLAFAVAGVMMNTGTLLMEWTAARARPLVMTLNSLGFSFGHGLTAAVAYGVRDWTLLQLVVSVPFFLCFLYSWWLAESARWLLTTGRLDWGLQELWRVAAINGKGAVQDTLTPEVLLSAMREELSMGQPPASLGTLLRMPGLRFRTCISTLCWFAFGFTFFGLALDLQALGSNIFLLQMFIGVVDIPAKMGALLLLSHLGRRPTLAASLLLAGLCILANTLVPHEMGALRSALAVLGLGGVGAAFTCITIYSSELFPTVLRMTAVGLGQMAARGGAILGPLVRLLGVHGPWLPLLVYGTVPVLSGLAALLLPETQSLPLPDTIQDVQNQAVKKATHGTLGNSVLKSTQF
quantity-name: pIC50
The meaning of pIC50 here: minus log10 of the concentration in molar units.

Sample records with pIC50:
smi: O=C(O)C1(Sc2ccnc3ccc(Br)cc23)CC1
pIC50: 6.45

smi: O=C(O)C1(Sc2ccnc3ccc(-c4cccc(F)c4)cc23)CCC1
pIC50: 5.92

smi: O=C(O)C1(Sc2ccnc3ccccc23)CCC1
pIC50: 6.35

Shifting focus to the compound that follows.
Query for UniProt:Q96S37: what pIC50 does the record show for "O=C(O)C1(Sc2ccnc3ccc(CO)cc23)CCC1" ?
5.90
